The values you see were collected from patent US20230126391A1.

# Measured Target: LpMip (Legionella pneumophila subsp. pneumophila)
# Sequence (Q5ZXE0 21-233 limits assumed): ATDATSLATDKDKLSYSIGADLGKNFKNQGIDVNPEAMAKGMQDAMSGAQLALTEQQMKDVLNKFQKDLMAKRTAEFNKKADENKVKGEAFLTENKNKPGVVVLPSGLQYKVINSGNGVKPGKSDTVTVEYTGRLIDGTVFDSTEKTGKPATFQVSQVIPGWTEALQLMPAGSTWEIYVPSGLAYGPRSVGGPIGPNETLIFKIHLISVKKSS
# Measurement Notes: biochemical
# Format: binding
# Experimental Setup: read-out: Ki LpMip
Quantity: pKi
Quick note: pKi values are minus log10 of concentrations in mol/L.

What value of pKi has been recorded for this entry: C=C[C@H]1CN(CC(=O)O)C(=O)[C@@H]2CCC[C@H]1N2S(=O)(=O)c1cc(Cl)cc(Cl)c1 [21a]
5.29

Report pKi for O=C1[C@@H]2CCC[C@H]([C@@H](CO)CN1Cc1ccccn1)N2S(=O)(=O)c1ccc2ncsc2c1 [25a] please.
5.40

Can you look up the measured pKi of O=C1[C@@H]2CCC[C@H]([C@@H](CO)CN1Cc1ccccn1)N2S(=O)(=O)c1cc(Cl)cc(Cl)c1 [23a] for me?
6.33

Give its pKi value. Item: COC[C@H]1CN(Cc2ccccn2)C(=O)[C@@H]2CCC[C@H]1N2S(=O)(=O)c1cc(Cl)cc(Cl)c1 [24a]
6.30

###

# Measured Target: FKBP12.6 (Homo sapiens, UniProt P68106)
# Sequence (P68106 whole entry): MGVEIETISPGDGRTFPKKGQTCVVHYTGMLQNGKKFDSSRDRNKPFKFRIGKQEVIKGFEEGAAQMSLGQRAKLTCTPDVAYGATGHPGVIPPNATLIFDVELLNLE
# Measurement Notes: Binding affinity of ligands with large RA (E3-ligase CRBN, PEG linker)
# Experimental Setup: * = detection limit
Each record here notes measured pKi.
Kindly note that pKi refers to -log10 of the concentration in mol/L and answer with the value alone.

Item under review: C=C[C@H]1CN(Cc2cn(CCOCCOCCOCCOCCOCC(=O)Nc3cccc4c3C(=O)N(C3CCC(=O)NC3=O)C4=O)nn2)C(=O)[C@@H]2CCC[C@H]1N2S(=O)(=O)c1cc(Cl)cc(Cl)c1 (some centres unmarked) [MTQ507] . Reported pKi?
8.00

###

# Measured Target: FKBP51 (Homo sapiens, UniProt Q13451)
# Sequence (Q13451 1-457): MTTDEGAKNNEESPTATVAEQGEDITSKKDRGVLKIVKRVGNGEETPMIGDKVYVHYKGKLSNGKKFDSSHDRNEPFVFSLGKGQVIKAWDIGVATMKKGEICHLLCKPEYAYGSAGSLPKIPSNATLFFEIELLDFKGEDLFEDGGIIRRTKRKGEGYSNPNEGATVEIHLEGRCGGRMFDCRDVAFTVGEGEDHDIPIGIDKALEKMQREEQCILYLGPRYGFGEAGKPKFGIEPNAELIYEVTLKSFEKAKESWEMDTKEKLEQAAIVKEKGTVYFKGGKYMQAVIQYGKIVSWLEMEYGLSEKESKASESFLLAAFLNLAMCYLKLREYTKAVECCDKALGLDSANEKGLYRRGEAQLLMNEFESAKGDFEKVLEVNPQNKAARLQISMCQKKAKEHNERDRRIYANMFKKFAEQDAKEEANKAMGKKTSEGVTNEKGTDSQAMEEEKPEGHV
# Measurement Notes: FP assay, binding to human FKBPs (Table 1)
# Experimental Setup: fluorescence polarization assay
Quantity: pKi
Recall that pKi is obtained by taking minus log10 of the concentration measured in molar.

Here are 4 compounds together with their reported answers.
1. C=C[C@H]1CN(CC(=O)O)C(=O)[C@@H]2CCC[C@H]1N2S(=O)(=O)c1cc(Cl)cc(Cl)c1 [21a]; 6.76
2. C=C[C@H]1CN([C@@H](C)c2ccccn2)C(=O)[C@@H]2CCC[C@H]1N2S(=O)(=O)c1cc(Cl)cc(Cl)c1; 8.59
3. COC[C@H]1CN(Cc2ccccn2)C(=O)[C@@H]2CCC[C@H]1N2S(=O)(=O)c1cc(Cl)cc(Cl)c1 [24a]; 7.92
4. O=C1[C@@H]2CCC[C@H]([C@@H](CO)CN1Cc1ccccn1)N2S(=O)(=O)c1ccc2ncsc2c1 [25a]; 6.55

Now turn to the next compound.
Would you mind telling me what pKi value was observed for COC[C@H]1CN([C@@H](C)c2ccccn2)C(=O)[C@@H]2CCC[C@H]1N2S(=O)(=O)c1cc(Cl)cc(Cl)c1 [24b] ?
9.08
